assay: yeast display, Sf9 membrane polyspecificity reagent, FACS + sequencing; frameworks hold sequencing errors
readoutLabel: polyreactivity (PSR sort gate)

Some entries whose results are on file:
{"seqText": "QVQLVESGGGLVQAGGSLRLSCAASGYTFRYYAMGWYRQAPGKDRELVAVISSGGSTKYADSVKGRFTNSRDNAKNTVYLQMNSLKPEDTAVYYCAARYRSLYNYWGQGTQVTVSS", "observedResult": "high polyreactivity"}
{"seqText": "QVQLVESGGGLVQAGGSLRLSCAASGITFYYYAMGWYRQAPGKERELVAAISWSGGRTYYADSVKGRFTISRDNAKNTVYLQMNSLKPEDTAVYYCAAGYYLYHFVSLYGGDYWGQGTQVTVSS", "observedResult": "high polyreactivity"}
{"seqText": "QVQLVESGRGLVQAGGSLRLSCAASGRIFKAYAMGWYRQAPGKERELVAAISRSGGRTFYADSVKGRFTISRDNAKNTVYLQMNSLKPEDTAVYYCAVDVSPDSEYYYWGQGTQVTVSS", "observedResult": "high polyreactivity"}
{"seqText": "QVQLVESGGGLVQAGGSLRLSCAASGSIFPVYAMGWYRQAPGKERELVASISTGGSTYYADSVKGRFTISRDNAKNTVYLQMNSLKPEDTAVYYCSATGWAYGYGYGYWGQGTQVTVSS", "observedResult": "low polyreactivity"}
{"seqText": "QVQLVESGGGLVQAGGSLRLSCAATGIKFDGYAMGWYRQEPRKERELVAGITIGDITYYADSVKGRFTISRDNAKNTVYLQMNSLKPEDTAVYYCADDCYYYQTAYDYWGQGTQVTVSS", "observedResult": "low polyreactivity"}

-- ask Return reported polyreactivity (PSR sort gate); argument: QVQLVESGGGLVQAGGSLRLSCAASGFIFSYYAMGWYRQAPGKERELVAAITVTGGNTYYADSVKGRFTISRDNAKNTVYLQMNSLKPEDTAVYYCAAVVRGPGVSVYYWGQGTQVSVSS
-- reply low polyreactivity

-- ask Item QVQLVESGGGLVQAGGSLRLSCAASGFIFRYNAMGWYRQAPGKEREFVAAISQGGASTYYADSVKGRFTISRDNAKNTVYLQMNSLKPEDTAVYYCAREPSIFTPSYDYWGQGTQVTVSS has what recorded polyreactivity (PSR sort gate)?
-- reply low polyreactivity
